In this section, each of the molecules is paired with its reported ABSOLUTE SEGMENTED NEUTROPHIL.
species: Rattus norvegicus; assay: DrugMatrix - Regimen: Daily Repeat; format: toxicity, organism-based, Sprague-Dawley; set-up: regimen Daily Repeat, gender Male, age 6-8 weeks; conditions: in vivo, iv, 0 mg/kg, 72 h, tissue Blood, dose level Control, time 3 day, vehicle 100 % SALINE
Express the result in CELLS/uL but write the number alone.

For orientation, consider the following solved cases.
[[record]]
molecule = "COc1cccc2c1C(=O)c1c(O)c3c(c(O)c1C2=O)C[C@@](O)(C(=O)CO)C[C@@H]3O[C@H]1C[C@H](N)[C@H](O)[C@H](C)O1"
measurement_kind = "ABSOLUTE SEGMENTED NEUTROPHIL"
readout_number = 575

[[record]]
molecule = "CC[C@]1(O)C[C@@H]2CN(CCc3c([nH]c4ccccc34)[C@@](C(=O)OC)(c3cc4c(cc3OC)N(C)[C@H]3[C@@](O)(C(=O)OC)[C@H](OC(C)=O)[C@]5(CC)C=CCN6CC[C@]43[C@@H]65)C2)C1"
measurement_kind = "ABSOLUTE SEGMENTED NEUTROPHIL"
readout_number = 702.17

[[record]]
molecule = "CCc1c2c(nc3ccc(OC(=O)N4CCC(N5CCCCC5)CC4)cc13)-c1cc3c(c(=O)n1C2)COC(=O)[C@]3(O)CC"
measurement_kind = "ABSOLUTE SEGMENTED NEUTROPHIL"
readout_number = 1635.17

[[record]]
molecule = "COc1cccc2c1C(=O)c1c(O)c3c(c(O)c1C2=O)C[C@@](O)(C(=O)CO)C[C@@H]3O[C@H]1C[C@H](N)[C@@H](O)[C@H](C)O1 [EPIRUBICIN]"
measurement_kind = "ABSOLUTE SEGMENTED NEUTROPHIL"
readout_number = 1635.17

[[record]]
molecule = "CC(=O)N[C@@H]1[C@H](Oc2c3cc4cc2Oc2ccc(cc2Cl)[C@@H](O[C@@H]2O[C@@H](CO)[C@@H](O)[C@H](O)[C@@H]2NC(C)=O)[C@@H]2NC(=O)[C@H](NC(=O)[C@@H]4NC(=O)[C@H]4NC(=O)[C@@H](Cc5ccc(c(Cl)c5)O3)NC(=O)[C@H](N)c3ccc(O)c(c3)Oc3cc(O)cc4c3)c3ccc(O)c(c3)-c3c(O[C@H]4O[C@H](CO)[C@@H](O)[C@@H](O)[C@@H]4O)cc(O)cc3[C@@H](C(=O)O)NC2=O)O[C@@H](CO)[C@@H](O)[C@@H]1O"
measurement_kind = "ABSOLUTE SEGMENTED NEUTROPHIL"
readout_number = 1883


Turning to the following molecule.
get_value(item= `CCC1=C[C@@H]2CN(C1)Cc1c([nH]c3ccccc13)[C@@](C(=O)OC)(c1cc3c(cc1OC)N(C)[C@H]1[C@@](O)(C(=O)OC)[C@H](OC(C)=O)[C@]4(CC)C=CCN5CC[C@]31[C@@H]54)C2` , readout=ABSOLUTE SEGMENTED NEUTROPHIL) returns 709.83

---

In this section, each of the molecules is paired with its reported HEMOGLOBIN.
species: Rattus norvegicus; assay: DrugMatrix - Regimen: Daily Repeat; format: toxicity, organism-based, Sprague-Dawley; set-up: regimen Daily Repeat, gender Male, age 6-8 weeks; conditions: in vivo, po, 10 mg/kg, 72 h, tissue Blood, route oral GAVAGE, dose level Low, time 3 day, […]
Express the result in G/DL but write the number alone.

[[record]]
molecule = "CC(C)CC(N(C)C)C1(c2ccc(Cl)cc2)CCC1 (centres undefined)"
measurement_unit = "G/DL"
readout_number = 13.53

[[record]]
molecule = "CCOC(=O)C1=C(C)NC(C)=C(C(=O)OC)C1c1cccc([N+](=O)[O-])c1 (centres undefined)"
measurement_unit = "G/DL"
readout_number = 13.03

[[record]]
molecule = "COc1ccc2cc([C@H](C)C(=O)O)ccc2c1"
measurement_unit = "G/DL"
readout_number = 14.13


Turning to the following molecule.
get_value(item= COCCOC(=O)C1=C(C)NC(C)=C(C(=O)OC(C)C)C1c1cccc([N+](=O)[O-])c1 (centres undefined) , readout=HEMOGLOBIN) returns 13.03
